Tested on: LOVO xenografts
Test: LOVO xenografts in nude mice
Type: in vivo
Conditions: LOVO xenograft nude mice, 1 mg/kg
experimentalEndpoint: Tumor weight (g)

- CCC1=C[C@@H]2CN(C1)Cc1c([nH]c3ccccc13)[C@@](C(=O)OC)(c1cc3c(cc1OC)N(C)[C@H]1[C@@](O)(C(=O)NN)[C@H](O)[C@]4(CC)C=CCN5CC[C@]31[C@@H]54)C2 [JJ-CCRB, hydrazinolyzed vinorelbine]: 0.87
- CC[C@]1(O)C[C@@H]2CN(CCc3c([nH]c4ccccc34)[C@@](C(=O)OC)(c3cc4c(cc3OC)N(C)[C@H]3[C@@](O)(C(=O)NN)[C@H](O)[C@]5(CC)C=CCN6CC[C@]43[C@@H]65)C2)C1 [JJ-CCJ, hydrazinolyzed vinblastine]: 0.64
- CC[C@]12C=CCN3CC[C@@]4(c5cc([C@@]6(C(=O)OC)C[C@@H]7C[C@@H](C(C)(F)F)CN(Cc8c6[nH]c6ccccc86)C7)c(OC)cc5N(C)[C@H]4[C@@](O)(C(=O)NN)[C@@H]1O)[C@@H]32 [JJ-CCFN, hydrazinolyzed vinflunine]: 0.68
